Test system: c-Abl (mouse)
EXPERIMENT SUMMARY: phosphorylation enrichment, bacterial display (enrichment ratio); higher = better substrate or ligand; peptides without Tyr show the background;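 further: 11-residue human phosphosite peptides and single-mutation variants displayed on the E. coli surface, counted by deep sequencing, each peptide's frequency after selection divided by its frequency in the unselected input library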;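 further: frequency after pTyr selection over input frequency; kinase dosed for 20-30% of maximal phosphorylation in three min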
Category key, based on recorded phosphorylation enrichment: LOW = under 0.6, MID = from 0.6 up to 0.8, HIGH = 0.8 and over

{"columns": ["SEQUENCE TEXT", "CLASS"],
 "data": [
  ["DAASNYARGHY [TUBA3E_Y103]", "LOW"]
]}

q: # bin label for SLTRLCVGENA [NLRP3_Y861_Y861C]
a: HIGH

q: // return the class label for IFGEEYEEQPR [ZMYM2_Y1033_V1028I]
a: MID

q: Sort into band: HQEPVCSVAFS [TBL1X_Y509_Y509C]
a: HIGH

q: Consider QGGRRYMMIVD [GAA_Y438] . To which phosphorylation enrichment class does it belong?
a: LOW

---

MEASURED TARGET: MERTK (UniProt Q12866)
Sequence (Q12866 whole entry, looked up): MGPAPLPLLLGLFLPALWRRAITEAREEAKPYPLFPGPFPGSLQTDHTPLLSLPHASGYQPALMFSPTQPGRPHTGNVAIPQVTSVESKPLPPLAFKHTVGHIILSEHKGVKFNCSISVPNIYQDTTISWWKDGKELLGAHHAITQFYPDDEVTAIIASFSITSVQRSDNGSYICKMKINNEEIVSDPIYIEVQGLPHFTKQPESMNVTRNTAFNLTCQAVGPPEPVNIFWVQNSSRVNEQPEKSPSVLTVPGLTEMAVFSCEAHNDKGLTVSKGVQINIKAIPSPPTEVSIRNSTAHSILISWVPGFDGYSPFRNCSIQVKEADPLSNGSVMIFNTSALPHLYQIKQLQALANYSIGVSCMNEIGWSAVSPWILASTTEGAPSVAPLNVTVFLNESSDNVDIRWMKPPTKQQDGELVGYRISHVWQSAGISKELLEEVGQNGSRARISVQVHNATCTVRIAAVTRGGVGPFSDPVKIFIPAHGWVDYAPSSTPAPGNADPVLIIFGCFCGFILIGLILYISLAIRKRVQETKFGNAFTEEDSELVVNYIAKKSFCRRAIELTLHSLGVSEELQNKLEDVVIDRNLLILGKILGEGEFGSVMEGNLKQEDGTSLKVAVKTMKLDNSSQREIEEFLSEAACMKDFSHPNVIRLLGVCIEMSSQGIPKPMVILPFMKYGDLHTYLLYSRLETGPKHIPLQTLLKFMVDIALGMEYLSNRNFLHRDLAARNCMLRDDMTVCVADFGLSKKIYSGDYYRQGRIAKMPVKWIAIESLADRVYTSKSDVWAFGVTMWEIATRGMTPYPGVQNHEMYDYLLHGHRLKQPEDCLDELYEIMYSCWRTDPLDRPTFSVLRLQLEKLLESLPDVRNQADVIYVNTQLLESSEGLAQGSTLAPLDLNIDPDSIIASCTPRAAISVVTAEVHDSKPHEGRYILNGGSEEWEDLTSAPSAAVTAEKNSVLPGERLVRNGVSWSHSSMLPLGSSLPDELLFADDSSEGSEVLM
EXPERIMENT SUMMARY: phosphorylation enrichment, bacterial display (enrichment ratio); higher = better substrate or ligand; peptides without Tyr show the background
MEASURED PARAMETER: phosphorylation enrichment
Answers are plain numbers.

For orientation, consider the following solved cases.
{"columns": ["SEQUENCE TEXT", "phosphorylation enrichment"],
 "data": [
  ["RTCSSYTIEKI [PARP15_Y520_A521T]", 0.533],
  ["SPRDTYSDRIG [CTPS1_Y567_S571I]", 0.416],
  ["SGGGSYGSGGG [KRT1_Y539]", 0.349],
  ["FLNSIYQSRDE [ROS1_Y2227_K2228Q]", 0.489],
  ["IDSTPYGQWFE [RPS8_Y109_R110G_YF]", 0.473],
  ["LTFHMYADPNI [SOS1_Y618_F623I_YF]", 0.583]
]}

Parameters: items (list). Returns: phosphorylation enrichment for each item.
1. FDAHIYEGRVI [PRKCD_Y64]
2. SDGHEYIYVDP [PDGFRB_Y579]

a:
0.47
0.92

Look up phosphorylation enrichment for the entries below, preserving their order.
1. TLKDVCDDGKF [RPS6KA3_Y483_Y483C_YF]
2. LVSCTYQLARR [FGFR2_Y608_G613R]
3. LKVKAYRFSIS [LCT_Y974]
4. DFPGNYSGFDD [POLR1C_Y33_YF]
5. VHNLDYFKQTT [FGFR3_Y647_K650Q_YF]
6. CTTIHYNYMCK [TP53_Y234_N239K]

a:
[0.498, 0.861, 0.493, 0.376, 0.434, 0.456]

---

Can you tell me phosphorylation enrichment for the items I'm about to list?
MEASURED TARGET: Jak2 (UniProt O60674)
Sequence (O60674 whole entry, looked up): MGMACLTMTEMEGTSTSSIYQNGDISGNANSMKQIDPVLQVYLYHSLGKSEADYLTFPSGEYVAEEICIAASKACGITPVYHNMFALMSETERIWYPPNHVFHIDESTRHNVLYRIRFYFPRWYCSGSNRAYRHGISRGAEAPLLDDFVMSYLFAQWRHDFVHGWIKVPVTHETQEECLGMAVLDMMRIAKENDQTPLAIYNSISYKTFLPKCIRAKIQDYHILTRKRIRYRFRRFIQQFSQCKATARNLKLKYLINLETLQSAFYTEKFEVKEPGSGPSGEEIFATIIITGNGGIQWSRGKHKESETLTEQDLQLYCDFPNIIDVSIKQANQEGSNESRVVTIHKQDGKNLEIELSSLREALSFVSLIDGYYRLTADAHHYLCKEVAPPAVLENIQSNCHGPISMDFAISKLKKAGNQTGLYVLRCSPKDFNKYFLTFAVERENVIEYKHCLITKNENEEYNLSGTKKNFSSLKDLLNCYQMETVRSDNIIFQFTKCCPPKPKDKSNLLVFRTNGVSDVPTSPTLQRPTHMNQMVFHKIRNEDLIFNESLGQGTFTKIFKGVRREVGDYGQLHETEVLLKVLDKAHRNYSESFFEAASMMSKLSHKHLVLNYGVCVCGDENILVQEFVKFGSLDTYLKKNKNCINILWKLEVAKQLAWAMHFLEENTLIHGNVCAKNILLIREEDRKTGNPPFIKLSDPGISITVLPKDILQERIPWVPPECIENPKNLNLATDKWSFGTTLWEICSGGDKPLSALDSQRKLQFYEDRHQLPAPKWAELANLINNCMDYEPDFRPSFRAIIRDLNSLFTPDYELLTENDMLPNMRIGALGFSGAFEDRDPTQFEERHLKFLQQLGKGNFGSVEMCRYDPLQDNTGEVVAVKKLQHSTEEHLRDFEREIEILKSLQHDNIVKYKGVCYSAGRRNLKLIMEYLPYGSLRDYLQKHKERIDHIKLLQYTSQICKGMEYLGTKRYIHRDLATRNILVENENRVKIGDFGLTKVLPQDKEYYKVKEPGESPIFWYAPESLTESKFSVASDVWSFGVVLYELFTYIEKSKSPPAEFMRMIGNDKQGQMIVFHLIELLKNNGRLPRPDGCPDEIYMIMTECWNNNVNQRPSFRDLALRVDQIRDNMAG
EXPERIMENT SUMMARY: phosphorylation enrichment, bacterial display (enrichment ratio); higher = better substrate or ligand; peptides without Tyr show the background
Give bare numbers.

Use the examples below as a reference point.
{"columns": ["SEQUENCE TEXT", "QUANTITATIVE RESULT"],
 "data": [
  ["FDRREYSRFEK [ITGB7_Y758_YF]", 0.577],
  ["CDTKLYTSVPN [DNTTIP2_Y427_A430V]", 0.842]
]}

# batch: return phosphorylation enrichment for each of the 5 sequences below
1. FQEPVYSVAFS [TBL1X_Y509_H504Y_YF]
2. AQADIYKADFQ [IKBKG_Y308]
3. DVSVVYSEVKT [FCRL4_Y493]
4. ATVRPYRPYII [LRP5_Y1528_A1525V]
5. AKNKDYMSIIR [GNE_Y197]

a:
0.925
0.672
1.07
0.564
0.706

Look at each sequence and report its phosphorylation enrichment.
1. PHRSIYFSSPK [MPG_Y75_Y71H]
2. RGESFYQDRMN [RARS_Y338]
3. FRDALYKSMVD [PHEX_Y250_F252S_YF]
4. DDSSAYRSVDE [BCKDHA_Y345]
5. GKFFQYDTWKQ [IGF2_Y116]
6. KFEDVYVGICL [B3GALNT1_Y269]
7. MVIPNYSSRTE [UROC1_Y185]
8. RREGVYRNNID [PTEN_Y46_L42R]

a:
1: 0.584; 2: 0.899; 3: 0.897; 4: 1.12; 5: 0.601; 6: 1.16; 7: 0.486; 8: 0.778

Batch request: phosphorylation enrichment per item, same order as input.
1. HEKKAYAFCGT [RPS6KA3_Y226_S227A]
2. ADLTEYLSTHY [UQCRC1_Y219]
3. PLGKDYRKVEG [MAP1A_Y1909_A1912V]
4. PIPAAYNKFDQ [CDC73_Y290_R292K_YF]
5. IETGRYEILTE
6. EEQKRYFNAMK [SCN5A_Y1494_K1493R_YF]
7. KKCTRYIDCAL [ASPA_Y64_D68A]
8. EGTATYAAAVL [JUP_Y644]

a:
[0.516, 0.908, 1.52, 0.653, 0.951, 0.673, 0.595, 0.501]

---

Please go through the items and note down their phosphorylation enrichment.
MEASURED TARGET: FGFR1 (UniProt P11362)
Sequence (P11362 whole entry, looked up): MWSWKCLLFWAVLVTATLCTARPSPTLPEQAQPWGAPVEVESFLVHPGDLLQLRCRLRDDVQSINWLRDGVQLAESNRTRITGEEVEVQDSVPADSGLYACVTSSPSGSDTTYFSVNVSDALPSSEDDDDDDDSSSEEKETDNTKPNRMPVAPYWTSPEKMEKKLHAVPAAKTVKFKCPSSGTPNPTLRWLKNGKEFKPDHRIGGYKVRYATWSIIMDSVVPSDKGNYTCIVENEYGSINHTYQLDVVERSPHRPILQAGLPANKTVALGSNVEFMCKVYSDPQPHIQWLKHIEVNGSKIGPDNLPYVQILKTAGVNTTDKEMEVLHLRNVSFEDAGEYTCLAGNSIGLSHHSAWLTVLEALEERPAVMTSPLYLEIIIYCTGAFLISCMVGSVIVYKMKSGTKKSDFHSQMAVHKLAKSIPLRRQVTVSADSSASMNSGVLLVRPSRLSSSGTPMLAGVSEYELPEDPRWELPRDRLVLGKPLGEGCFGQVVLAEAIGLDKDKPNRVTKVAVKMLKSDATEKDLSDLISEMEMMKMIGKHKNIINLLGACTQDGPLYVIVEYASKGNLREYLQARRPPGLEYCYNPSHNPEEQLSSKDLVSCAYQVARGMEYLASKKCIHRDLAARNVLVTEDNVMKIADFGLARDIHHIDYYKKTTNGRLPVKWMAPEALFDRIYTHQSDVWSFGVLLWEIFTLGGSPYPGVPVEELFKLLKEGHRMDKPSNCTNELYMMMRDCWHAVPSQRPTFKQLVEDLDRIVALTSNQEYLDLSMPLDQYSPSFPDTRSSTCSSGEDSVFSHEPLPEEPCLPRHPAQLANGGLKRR
EXPERIMENT SUMMARY: phosphorylation enrichment, bacterial display (enrichment ratio); higher = better substrate or ligand; peptides without Tyr show the background

{"columns": ["SEQUENCE TEXT", "MEASURED TARGET", "MEASURED PARAMETER", "RESULT"],
 "data": [
  ["SPPILYSFYLD [FCRL6_Y239]", "FGFR1 (UniProt P11362)", "phosphorylation enrichment", 1.42],
  ["KLKRSYSSRDI [USP8_Y717_P720R]", "FGFR1 (UniProt P11362)", "phosphorylation enrichment", 0.289],
  ["TNRSVYFKPSL [NUP153_Y382]", "FGFR1 (UniProt P11362)", "phosphorylation enrichment", 0.448],
  ["EEGNPYFSSTR [MCCC2_Y520_A524T_YF]", "FGFR1 (UniProt P11362)", "phosphorylation enrichment", 0.484],
  ["YEEDSYSHVMA [FDPS_Y388_I391V]", "FGFR1 (UniProt P11362)", "phosphorylation enrichment", 1.22]
]}

For each of the sequences below, note its phosphorylation enrichment.
1. ALAHKYLGGGG [HBB_Y146_H147L]
2. GHMYAYDWISI [BEST1_Y227_L224M]
3. CTTIHYNFMFN [TP53_Y234_C238F_YF]
4. SSNLYYRWLTA [CNGA3_Y169]
5. FRPPYYHRDCM [HGD_Y334_N337D]
6. RRESQYQENRG [LRCH3_Y354]
7. PLGKDYRKVEG [MAP1A_Y1909_A1912V]

a:
0.307
8.74
0.676
6.93
0.56
0.479
0.518

For each listed entry, give its phosphorylation enrichment.
1. RGDCTYAPLLG [AR_Y269_M268T]
2. KHCEDYVCSYN [DSC1_Y846]

a:
1: 1.42; 2: 0.627

---

Provide the recorded phosphorylation enrichment for the entries that follow.
MEASURED TARGET: EPHB1 (UniProt P54762)
Sequence (P54762 whole entry, looked up): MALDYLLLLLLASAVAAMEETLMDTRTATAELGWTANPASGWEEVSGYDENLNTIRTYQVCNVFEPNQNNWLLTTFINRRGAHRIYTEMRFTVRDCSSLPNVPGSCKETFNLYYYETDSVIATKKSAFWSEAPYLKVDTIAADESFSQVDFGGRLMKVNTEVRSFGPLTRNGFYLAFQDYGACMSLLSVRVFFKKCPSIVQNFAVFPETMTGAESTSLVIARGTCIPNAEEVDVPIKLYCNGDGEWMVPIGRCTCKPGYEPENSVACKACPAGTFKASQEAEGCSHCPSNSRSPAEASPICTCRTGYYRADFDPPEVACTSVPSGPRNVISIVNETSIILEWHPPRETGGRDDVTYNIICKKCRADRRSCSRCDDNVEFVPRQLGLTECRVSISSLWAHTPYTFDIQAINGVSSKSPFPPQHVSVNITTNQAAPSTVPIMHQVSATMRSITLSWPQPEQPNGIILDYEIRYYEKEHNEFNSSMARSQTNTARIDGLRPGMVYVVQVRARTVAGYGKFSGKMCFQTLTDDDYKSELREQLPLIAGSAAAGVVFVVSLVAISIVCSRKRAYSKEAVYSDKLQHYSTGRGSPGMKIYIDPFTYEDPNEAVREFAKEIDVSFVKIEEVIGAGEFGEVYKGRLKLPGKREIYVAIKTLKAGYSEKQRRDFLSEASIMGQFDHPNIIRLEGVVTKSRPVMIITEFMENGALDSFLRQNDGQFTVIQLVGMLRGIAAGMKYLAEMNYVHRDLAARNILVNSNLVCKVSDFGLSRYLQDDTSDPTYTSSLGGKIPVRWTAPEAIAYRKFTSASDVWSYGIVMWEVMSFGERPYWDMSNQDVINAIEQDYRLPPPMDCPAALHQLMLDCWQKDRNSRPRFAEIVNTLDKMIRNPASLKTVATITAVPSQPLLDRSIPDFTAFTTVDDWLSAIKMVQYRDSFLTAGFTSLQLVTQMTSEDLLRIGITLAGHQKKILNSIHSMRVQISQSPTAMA
EXPERIMENT SUMMARY: phosphorylation enrichment, bacterial display (enrichment ratio); higher = better substrate or ligand; peptides without Tyr show the background
Numbers only.

Guide cases for phosphorylation enrichment, answers given:
{"columns": ["SEQUENCE TEXT", "MEASURED PARAMETER", "QUANTITATIVE RESULT"],
 "data": [
  ["SLALFYRNVYH [RBL1_Y792_K794N]", "phosphorylation enrichment", 0.511],
  ["QSQQAYQEAFE [YWHAZ_Y149]", "phosphorylation enrichment", 0.355],
  ["PLGKDYRKVEG [MAP1A_Y1909_A1912V]", "phosphorylation enrichment", 0.561],
  ["HSQEDYFECFQ [ZIM2_Y411]", "phosphorylation enrichment", 2.03]
]}

Quick one: give me phosphorylation enrichment for each item below, same order please.
1. MAQDIYRASFF [ALK_Y1278_R1275Q_YF]
2. SSDKVYAHQMD [MLH1_Y379_V384D]

a:
1: 0.353; 2: 0.537

Please give phosphorylation enrichment for each item listed below.
1. PTTKTYFPHFY [HBA1_Y43_D48Y]
2. HNLFSYPTKHE [MYO3A_Y1396_YF]
3. SVVVPYEAPEV [TP53_Y220_P222A]

a:
1: 0.46; 2: 0.65; 3: 0.649

Batch of 2 sequences: report phosphorylation enrichment for each.
1. FFIMMYTGSNV [DNAJC13_Y1131]
2. HHTDEYEFDEL [TGM1_Y134_YF]

a:
1: 0.681; 2: 0.909

Quick request: phosphorylation enrichment for each listed item, please.
1. FASALYGQRRS [FGF11_Y162_R163G_YF]
2. PMFHSYVSLPF [PLXNA2_Y293_K289M]
3. ASFSLYEPAKM [MKI67_Y340_P338S]

a:
1: 0.343; 2: 1.98; 3: 6.24
